The compounds listed here are annotated with their response.
- protocol-notes: cytosolic pH regulators acting via V-ATPase – S. cerevisiae, pHLuorin, HTS validation (AID 504600);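 also: plate controls were DMSO for no effect and reference compound for full effect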
- condition-details: V-ATPase proton transport, at 10 µM, hits give high values

| compound | value-unit | response |
| --- | --- | --- |
| COc1ccc(-c2cc(=O)oc3cc(OC(C)C(=O)O)ccc23)cc1 (stereo not drawn) | % | 1.91 |
| O=c1[nH]c(=O)n([C@H]2C[C@H](O)[C@@H](CO)O2)cc1C(F)(F)F | % | -1.8 |
| CSc1cccc(NC(=O)/C=C/c2ccccc2)c1 | % | 1.17 |

###

# maps each entry to its binding (% of control)
- Test system: anti-desmoglein-3 scFv antibody binding to human DSG3
- protocol-notes: blockers of pathogenic pemphigus antibody–desmoglein-3 binding – biochemical, validation compound set, bead-based, flow cytometry, pilot screen (AID 588368);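 also: signal is the median channel fluorescence of bead-bound GFP antibody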
- condition-details: Protein G beads, DSG3-Fc, scFv-GFP binding, at 10 µM, hits give low values

| compound | value-unit | binding (% of control) |
| --- | --- | --- |
| N=c1c[n+](N2CCOCC2)[n-]o1 | % | 95.1 |
| CCCNC(C)C(=O)Nc1ccccc1C (stereo not given) | % | 102 |
| COc1ccc(C(=O)Nc2cccc3cccnc23)cc1OC | % | 103 |
| CN(C)CCN(Cc1ccc(Cl)cc1)c1ccccn1 | % | 97.3 |
| CCOC(=O)C1=C(C)NC(C)=C(C(=O)OC)C1c1cccc([N+](=O)[O-])c1 (stereo not given) | % | 95.6 |
| COc1ccc(NC(=O)C2OC3OC(C)(C)OC3C3OC(C)(C)OC23)cc1 (stereo not given) | % | 106 |
| CN(C(=O)C(Cl)Cl)c1ccc(OC(=O)c2ccco2)cc1 | % | 99 |
| O=C(Nc1cccc(C(=O)O)c1)/C(=C\c1ccccc1)NC(=O)c1ccccc1 | % | 99 |
| CC(C)c1ccc(OCc2ccc(C(=O)O)o2)cc1 | % | 98.3 |
| Cc1ccc(Cl)c(OCCCN(C)Cc2ccccc2)c1 | % | 112 |
| CCN(CC)c1ccc([C@H]2[C@@H]3CCCC[C@]3(O)CCN2CC(=O)NCc2ccco2)cc1 | % | 99.5 |
| O=C1C2CC=C(Cl)CC2C(=O)N1CCc1c[nH]c2ccccc12 (stereo not given) | % | 103 |
| CCCCCC(O)c1cccc(OCc2ccc3ccccc3n2)c1 (stereo not given) | % | 92.4 |
| CC(=O)O[C@]1(C(C)=O)CC[C@H]2[C@@H]3C[C@H](C)C4=CC(=O)CC[C@]4(C)[C@H]3CC[C@@]21C | % | 100 |
| CC(C)(S)[C@@H](N)C(=O)O | % | 98.2 |
| C#CCN1C(=O)C(O)(c2c(C)[nH]c3ccccc23)c2ccccc21 (stereo not given) | % | 100 |
| OCCC1CN(Cc2ccccc2-c2ccco2)CCN1C1CCCC1 (stereo not given) | % | 101 |
| NC(N)=NC(N)=NCCc1ccccc1 | % | 88.8 |
| CC(C)(C)c1ccc(/C=C/C(=O)N2CCCCC2)cc1 | % | 98.4 |
| O=c1cnn([C@@H]2O[C@H](CO)[C@@H](O)[C@H]2O)c(=O)[nH]1 | % | 107 |
| COc1ccc(C=O)c(OC)c1 | % | 101 |
| Fc1ccccc1CNCCC(Cc1ccccc1)c1ccc2c(c1)OCO2 (stereo not given) | % | 105 |
| O=C(Cc1c[nH]c2ccccc12)OCCOC(=O)Cc1c[nH]c2ccccc12 | % | 99.6 |
| O=C(NCCNc1ccc(Cl)cc1[N+](=O)[O-])c1cccnc1 | % | 100 |
| O=C1CCCC(=O)C1=Cc1c[nH]c2ccccc12 | % | 98.5 |
| CCC(C)NCCOc1ccc(C(C)(C)c2ccccc2)cc1 (stereo not given) | % | 106 |
| CC(C)=CCC/C(C)=C/CC/C(C)=C/CC/C(C)=C/CC1=C(C)C(=O)c2ccccc2C1=O | % | 99.2 |
| Cc1ccc(S(=O)(=O)NC(=O)Nc2cc(C)ccc2F)cc1 | % | 92.9 |
| CC(NC(=O)c1cccnc1)C(=O)O (stereo not given) | % | 99.1 |
| COc1ccc(Cc2noc(CN(C)CC3(N4CCOCC4)CCCCC3)n2)cc1OC | % | 102 |
| O=C(N/N=C\c1cc([N+](=O)[O-])ccc1N1CCOCC1)c1ccccn1 | % | 102 |
| COc1ccc(/C=C2\CC/C(=C\c3ccc(OC)c(OC)c3)C2=O)cc1OC | % | 98.8 |
| CO[C@@]1(NC(=O)Cc2cccs2)C(=O)N2C(C(=O)O)=C(COC(N)=O)CS[C@@H]21 | % | 93.6 |
| CC(=O)c1c(C)c(C)c2n1CCn1c(C)ccc1-2 | % | 116 |
| CC(C)Oc1cccc(C(=O)N2CCCC2)c1 | % | 93.2 |

Origin of measurements: PubChem BioAssay
